Assay: chemical genetic growth profiling, strain panel (AID 1159580);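 further: tested at 20 µM; growth read once vehicle control cultures reached saturation at 30 °C; lower values mean less growth of the strain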
Settings: S. cerevisiae deletion strains, growth OD, locus YLR039C, strain RIC1
The campaign covered roughly 5,500 compounds. About 2,000 (36%) were called active. Not shown: some 18% with an inconclusive outcome. No stated cut-off is given here; in the data, active means normalized growth mostly below about 0.91 (no sharp cut-off); inconclusive means no clear call, values can overlap the other calls; inactive means mostly above about 0.92. The list shows a part of the results.
# output must be one of TRUE = active, FALSE = inactive

See these solved cases before continuing.
Query string: # outcome recorded in this test, key = CC(=O)CS(=O)(=O)c1ccc(Cl)cc1
Result string: FALSE

Query string: Now this one: CC[C@H]1CN2CCC1C[C@@H]2[C@@H](O)c1ccnc2ccc(OC)cc12 (stereo partly drawn)
Result string: FALSE

---
Query string: Hi, do you know how NC(=S)CS(=O)(=O)c1ccc(C(F)(F)F)cc1 came out in this test?
Result string: FALSE

Query string: And for O=C(Nc1ccc(Cl)cc1)N1CCN(c2ncccc2C(F)(F)F)CC1 ?
Result string: FALSE

Query string: Thanks! And C[C@@H](CO)NC(=O)C1C=C2c3cccc4[nH]cc(c34)C[C@H]2N(C)C1 (stereo partly drawn) ?
Result string: FALSE
